# test_system: Gal(b1-4)GlcNAc(b1-3)Gal(b1-4)GlcNAc(b1-3)Gal(b1-4)GlcNAc(b1-3)Gal(b1-4)GlcNAc(b1-2)[Gal(b1-4)GlcNAc(b1-3)Gal(b1-4)GlcNAc(b1-3)Gal(b1-4)GlcNAc(b1-3)Gal(b1-4)GlcNAc(b1-6)]Man(a1-6)[Gal(b1-4)GlcNAc(b1-3)Gal(b1-4)GlcNAc(b1-3)Gal(b1-4)GlcNAc(b1-3)Gal(b1-4)GlcNAc(b1-2)Man(a1-3)]Man(b1-4)GlcNAc(b1-4)[Fuc(a1-6)]GlcNAc
# protocol_text: glycan array binding signal (z-score within array); higher = stronger binding
# reported_conditions: glycan notation: IUPAC condensed, linker removed
Many of the other results were omitted from the sample, so the strongest signals are more common in it than they were.
Entries annotated with measured glycan array binding signal (z-score)
value_type: glycan array binding signal (z-score)

• CM2 (Cordyceps militaris) (protein) MEIAEQNVGKSCAIVNLIPPKEGSNIWTAKQVTIARNLPPNRGTGRHQIDWSFGPVKVTGYVDTTNWEIGVTVSIMGIDLGTVYGNLRDGVVLNVDLFLAKGQVRFYLKNGNEVWVHLSVEIRFDGKFEGDYKIITV = 1.2
• MXA PilAct-eGFP (Myxococcus xanthus), Q59589 (protein) MRVSRFNPRNRGFTLIELMIVVAIIGILAAIAIPNFIKFQARSKQSEAKTNLKALYTAQKSFFSEKDRYSDFANEIGFAPERGNRYGYRVSAAAGDCEVRNAADLPVPAAGVPCISNDSFRFGANSAIDDPTPVVARFVPQGAAGWNTTLGVQPTIADCPNCNFFAGARGNADNEATFDDWVIAGFEGSGQVGPCSEAGNVASGTPYNTRNDVACDGAAQ = 3.46
• Gal 8 (Homo sapiens) (protein) MLSLNNLQNIIYNPVIPYVGTIPDQLDPGTLIVICGHVPSDADRFQVDLQNGSSVKPRADVAFHFNPRFKRAGCIVCNTLINEKWGREEITYDTPFKREKSFEIVIMVLKDKFQVAVNGKHTLLYGHRIGPEKIDTLGIYGKVNIHSIGFSFSSDLQSTQASSLELTEISRENVPKSGTPQLQTVSPSWDLQGHGSETFCSVLWTRVFLEIAFCRPIGLTVASFQSLPFAARLNTPMGPGRTVVVKGEVNANAKSFNVDLLAGKSKDIALHLNPRLNIKAFVRNSFLQESWGEEERNITSFPFSPGMYFEMIIYCDVREFKVAVNGVHSLEYKHRFKELSSIDTLEINGDIHLLEVRSW = 5.79
